Test system: 996289-038-R-J1-PDC complex spheroid viability;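 note: spheroids exposed to the agents for 7 days before readout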
Assay: Anticancer human tumor 996289-038-R-J1-PDC patient-derived colon adenocarcinoma cell line growth inhibition [CLK]
Details: second compound 0.0316 µM; first compound 0.1 µM; hits give low values
Text: A high-throughput screen of multi-cell type tumor spheroids was designed to identify active combinations of […] and targeted small molecules. Complex spheroids include a stromal component modeled by human endothelial cells (HUVEC) and fibroblasts modeled by human mesenchymal stem cells (MSCs). […] Compounds. […] If the clinical Cmax for an agent had not been determined, the highest concentration tested was 10 microM. […]
reportedEndpoint: viability, T/C (%)

INSERT INTO measurements (compound, resultnumber) VALUES
  ('C=CC(=O)N1CCN(c2nc(=O)n(-c3c(C)ccnc3C(C)C)c3nc(-c4c(O)cccc4F)c(F)cc23)C(C)C1 (stereo unspecified) + CNC(=O)c1ccc(Nc2nc(OC3CCCC3)c3c(-c4ccc5nc(C)oc5c4)c[nH]c3n2)c(OC)c1', 105),
  ('O=c1[nH]cc(F)c(=O)[nH]1 + CN1CCN(c2cc(C(=O)Nc3cc4cc(-c5cnn(C)c5)ccc4cn3)ccn2)CC1', 91.3),
  ('O=C(c1cc(Cc2n[nH]c(=O)c3ccccc23)ccc1F)N1CCN(C(=O)C2CC2)CC1 + CNC(=O)c1ccc(Nc2nc(OC3CCCC3)c3c(-c4ccc5nc(C)oc5c4)c[nH]c3n2)c(OC)c1', 113),
  ('CC1COCCN1c1cc(C2(S(C)(=N)=O)CC2)nc(-c2ccnc3[nH]ccc23)n1 (stereo unspecified) + CNC(=O)c1ccc(Nc2nc(OC3CCCC3)c3c(-c4ccc5nc(C)oc5c4)c[nH]c3n2)c(OC)c1', 126),
  ('CC(Nc1ccc2c(c1)OCCn1cc(N3C(=O)OCC3C(F)F)nc1-2)C(N)=O (stereo unspecified) + CN1CCN(c2cc(C(=O)Nc3cc4cc(-c5cnn(C)c5)ccc4cn3)ccn2)CC1', 84.9),
  ('CC(=O)O[C@H]1C(=O)[C@@]2(C)[C@H]([C@H](OC(=O)c3ccccc3)[C@]3(O)C[C@H](OC(=O)[C@H](O)[C@@H](NC(=O)c4ccccc4)c4ccccc4)C(C)=C1C3(C)C)[C@]1(OC(C)=O)CO[C@@H]1C[C@@H]2O + CN1CCN(c2cc(C(=O)Nc3cc4cc(-c5cnn(C)c5)ccc4cn3)ccn2)CC1', 80.4),
  ('COc1ccc([C@@H](O)c2cc(-c3ncnc4cc(N5CCOCC5)ccc34)c(F)cc2Cl)nn1 + CN1CCN(c2cc(C(=O)Nc3cc4cc(-c5cnn(C)c5)ccc4cn3)ccn2)CC1', 94.8),
  ('COc1ccc([C@@H](O)c2cc(-c3ncnc4cc(N5CCOCC5)ccc34)c(F)cc2Cl)nn1 + CNC(=O)c1ccc(Nc2nc(OC3CCCC3)c3c(-c4ccc5nc(C)oc5c4)c[nH]c3n2)c(OC)c1', 117),
  ('Nc1ccn(C2OC(CO)C(O)C2(F)F)c(=O)n1 (stereo unspecified) + CN1CCN(c2cc(C(=O)Nc3cc4cc(-c5cnn(C)c5)ccc4cn3)ccn2)CC1', 62.6),
  ('CCN1CCN(Cc2ccc(Nc3ncc(F)c(-c4cc(F)c5nc(C)n(C(C)C)c5c4)n3)nc2)CC1 + CN1CCN(c2cc(C(=O)Nc3cc4cc(-c5cnn(C)c5)ccc4cn3)ccn2)CC1', 82.5),
  ('C#Cc1c(F)ccc2cc(O)cc(-c3ncc4c(N5CC6CCC(C5)N6)nc(OCC56CCCN5CC(F)C6)nc4c3F)c12 (stereo unspecified) + CN1CCN(c2cc(C(=O)Nc3cc4cc(-c5cnn(C)c5)ccc4cn3)ccn2)CC1', 92.2),
  ('CCCS(=O)(=O)Nc1ccc(F)c(C(=O)c2c[nH]c3ncc(-c4ccc(Cl)cc4)cc23)c1F + CN1CCN(c2cc(C(=O)Nc3cc4cc(-c5cnn(C)c5)ccc4cn3)ccn2)CC1', 87.7),
  ('Nc1ccccc1NC(=O)c1ccc(CNC(=O)OCc2cccnc2)cc1 + CN1CCN(c2cc(C(=O)Nc3cc4cc(-c5cnn(C)c5)ccc4cn3)ccn2)CC1', 103),
  ('COc1c(OCCCN2CCOCC2)ccc2c3n(c(=NC(=O)c4cnc(N)nc4)nc12)CCN3 + CNC(=O)c1ccc(Nc2nc(OC3CCCC3)c3c(-c4ccc5nc(C)oc5c4)c[nH]c3n2)c(OC)c1', 54.6),
  ('C=CC(=O)N1CCN(c2nc(=O)n(-c3c(C)ccnc3C(C)C)c3nc(-c4c(O)cccc4F)c(F)cc23)C(C)C1 (stereo unspecified) + CN1CCN(c2cc(C(=O)Nc3cc4cc(-c5cnn(C)c5)ccc4cn3)ccn2)CC1', 111),
  ('O=C(c1cc(Cc2n[nH]c(=O)c3ccccc23)ccc1F)N1CCN(C(=O)C2CC2)CC1 + CN1CCN(c2cc(C(=O)Nc3cc4cc(-c5cnn(C)c5)ccc4cn3)ccn2)CC1', 109),
  ('Cn1ncnc1[C@H]1c2n[nH]c(=O)c3cc(F)cc(c23)N[C@@H]1c1ccc(F)cc1 + CNC(=O)c1ccc(Nc2nc(OC3CCCC3)c3c(-c4ccc5nc(C)oc5c4)c[nH]c3n2)c(OC)c1', 108),
  ('COC1C=CCC(C)C(C)S(=O)(=O)NC(=O)c2ccc3c(c2)N(CC2CCC21)CC1(CCCc2cc(Cl)ccc21)CO3 (stereo unspecified) + CNC(=O)c1ccc(Nc2nc(OC3CCCC3)c3c(-c4ccc5nc(C)oc5c4)c[nH]c3n2)c(OC)c1', 119),
  ('Nc1ccn(C2OC(CO)C(O)C2(F)F)c(=O)n1 (stereo unspecified) + CNC(=O)c1ccc(Nc2nc(OC3CCCC3)c3c(-c4ccc5nc(C)oc5c4)c[nH]c3n2)c(OC)c1', 82.7),
  ('CC1COCCN1c1cc(C2(S(C)(=N)=O)CC2)nc(-c2ccnc3[nH]ccc23)n1 (stereo unspecified) + CN1CCN(c2cc(C(=O)Nc3cc4cc(-c5cnn(C)c5)ccc4cn3)ccn2)CC1', 104),
  ('C#Cc1c(F)ccc2cc(O)cc(-c3ncc4c(N5CC6CCC(C5)N6)nc(OCC56CCCN5CC(F)C6)nc4c3F)c12 (stereo unspecified) + CNC(=O)c1ccc(Nc2nc(OC3CCCC3)c3c(-c4ccc5nc(C)oc5c4)c[nH]c3n2)c(OC)c1', 93.2);
